TEST SYSTEM: mouse TMEM16A mutant I640A (Mus musculus, UniProt Q8BHY3, I640A)
Construct: expressed in transfected cells; host or cells: HEK293T
Sequence (Q8BHY3 1-960 I640A): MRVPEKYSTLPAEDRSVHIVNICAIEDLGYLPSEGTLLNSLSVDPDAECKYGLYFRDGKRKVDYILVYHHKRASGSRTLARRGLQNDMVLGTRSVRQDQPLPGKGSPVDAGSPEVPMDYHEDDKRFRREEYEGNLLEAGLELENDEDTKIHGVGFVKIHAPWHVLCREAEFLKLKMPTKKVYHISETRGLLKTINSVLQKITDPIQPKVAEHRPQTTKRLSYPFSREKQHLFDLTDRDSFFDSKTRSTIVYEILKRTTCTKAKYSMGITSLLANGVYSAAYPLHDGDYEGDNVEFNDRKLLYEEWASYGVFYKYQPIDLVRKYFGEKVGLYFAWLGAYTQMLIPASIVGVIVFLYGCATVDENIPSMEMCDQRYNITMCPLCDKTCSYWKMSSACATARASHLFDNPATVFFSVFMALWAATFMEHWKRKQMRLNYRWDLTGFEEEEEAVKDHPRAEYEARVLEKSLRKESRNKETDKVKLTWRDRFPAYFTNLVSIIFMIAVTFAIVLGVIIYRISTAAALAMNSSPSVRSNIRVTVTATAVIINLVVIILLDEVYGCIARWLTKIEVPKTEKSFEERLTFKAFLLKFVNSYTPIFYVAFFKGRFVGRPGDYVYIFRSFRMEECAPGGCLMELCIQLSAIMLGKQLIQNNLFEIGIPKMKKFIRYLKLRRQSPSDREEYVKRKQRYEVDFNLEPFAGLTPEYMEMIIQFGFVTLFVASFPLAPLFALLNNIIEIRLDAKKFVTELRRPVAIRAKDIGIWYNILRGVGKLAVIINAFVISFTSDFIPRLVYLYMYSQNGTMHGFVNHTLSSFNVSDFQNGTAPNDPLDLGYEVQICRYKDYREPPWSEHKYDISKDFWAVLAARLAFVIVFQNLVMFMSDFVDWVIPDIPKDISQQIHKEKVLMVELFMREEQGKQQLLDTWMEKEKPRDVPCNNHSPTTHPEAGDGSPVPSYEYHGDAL
ASSAY TEXT: Inside-out patch recording of 1PBC block, mutant I640A
Format: cell-based
DETAILS: I640A; V -60 mV
READOUT: IC50

`N#Cc1c(C(F)(F)F)cc(O)n2c1nc1ccccc12` yielded IC50 of 46.6 µM
